Cited source for all entries: the kinase profiling compilation of Christmann-Franck et al. (2016)

measuredOn: EIF2AK2 (human)
procedureSummary: KINOMEscan competition binding
experimentalConditions: compound 10.0 µM
Known kinase still bound, per cent of control of a selection of compounds
measurementType: kinase still bound, per cent of control (%)

| substanceSmiles | measurementType | measValue |
| --- | --- | --- |
| Cc1cc([C@@H](C)Nc2ccccc2C(=O)O)c2nc(N3CCOCC3)cc(=O)n2c1 | kinase still bound, per cent of control | 99 |
| N#Cc1c(NC(=O)c2cccc3ccccc23)sc2c1CCCC2 | kinase still bound, per cent of control | 100 |
| Nc1ccc(-c2ccc3ncc4ccc(=O)n(-c5cccc(C(F)(F)F)c5)c4c3c2)cn1 | kinase still bound, per cent of control | 70 |
| CCOc1cc2ncc(C#N)c(Nc3ccc(OCc4ccccn4)c(Cl)c3)c2cc1NC(=O)/C=C/CN(C)C | kinase still bound, per cent of control | 100 |
| COc1cc(N2CCN(C)CC2)ccc1Nc1nc(N)c(C(=O)c2c(Cl)cccc2Cl)s1 | kinase still bound, per cent of control | 75 |
| O=C1Nc2ccc(I)cc2/C1=C/c1cc(Br)c(O)c(Br)c1 | kinase still bound, per cent of control | 75 |
| CCN1CCN(Cc2ccc(Nc3ncc4c(n3)N(C)c3ccccc3C(=O)N4C)cc2C(F)(F)F)CC1 | kinase still bound, per cent of control | 95 |
| COc1cc(C(=O)NC2CCN(C)CC2)ccc1Nc1ncc2c(n1)N(C1CCCC1)CCC(=O)N2C(C)C | kinase still bound, per cent of control | 100 |
| CCC(=O)N1CCN(c2ccc(-n3c(=O)ccc4cnc5ccc(-c6cnc7ccccc7c6)cc5c43)cc2C(F)(F)F)CC1 | kinase still bound, per cent of control | 88 |
